Give measured FRESH WEIGHT OF PLANT for each item. Keep answers brief.
# Test system: Meloidogyne sp.
# test-details: Nematocidal activity against Meloidogyne sp. on potted cucumber/tomato plants in greenhouse (soil treatment)
# Assay type: in vivo
# experimental-setup: cucumber cv Chinese Long; dose applied 2 kg/hectare; 30 days after transplantation; healthy blank 23 g, infested blank 3.5 g
Give bare numbers, in g.

Record excerpt, results attached:
Please state recorded FRESH WEIGHT OF PLANT (tested on Meloidogyne sp.) of O=S(=O)(CCC(F)=C(F)F)c1ncc(Cl)s1 [CR1, reference compound]
5.5

Provide value of FRESH WEIGHT OF PLANT for this record tested with Meloidogyne sp.: CC(=O)N1C(C(=O)OCCC(F)=C(F)F)COC1(C)C(F)(F)F (centres unmarked)
18

Notebook entry, Meloidogyne sp. assay: FRESH WEIGHT OF PLANT of O=C(OCCC(F)=C(F)F)[C@@H]1CCCN1C(=O)C(F)(F)F = ?
22

Give FRESH WEIGHT OF PLANT (Meloidogyne sp.) of the following compound: CC(=O)N1CCC[C@H]1C(=O)OCCC(F)=C(F)F
21

Now consider the entry below.
Value wanted: FRESH WEIGHT OF PLANT (Meloidogyne sp.) of entry O=C(OCCC(F)=C(F)F)c1cccnc1 [CR2, reference compound]
17.5
